// reported Endocytosis, fold over IgG control for each item listed
target: Human LRP-8 (isoform 3) expressed on cells (human, UniProt Q14114 33-963); assay: cell-based or functional assay
Sequence (Q14114 other isoform, or with tags, fused parts or gaps limits assumed): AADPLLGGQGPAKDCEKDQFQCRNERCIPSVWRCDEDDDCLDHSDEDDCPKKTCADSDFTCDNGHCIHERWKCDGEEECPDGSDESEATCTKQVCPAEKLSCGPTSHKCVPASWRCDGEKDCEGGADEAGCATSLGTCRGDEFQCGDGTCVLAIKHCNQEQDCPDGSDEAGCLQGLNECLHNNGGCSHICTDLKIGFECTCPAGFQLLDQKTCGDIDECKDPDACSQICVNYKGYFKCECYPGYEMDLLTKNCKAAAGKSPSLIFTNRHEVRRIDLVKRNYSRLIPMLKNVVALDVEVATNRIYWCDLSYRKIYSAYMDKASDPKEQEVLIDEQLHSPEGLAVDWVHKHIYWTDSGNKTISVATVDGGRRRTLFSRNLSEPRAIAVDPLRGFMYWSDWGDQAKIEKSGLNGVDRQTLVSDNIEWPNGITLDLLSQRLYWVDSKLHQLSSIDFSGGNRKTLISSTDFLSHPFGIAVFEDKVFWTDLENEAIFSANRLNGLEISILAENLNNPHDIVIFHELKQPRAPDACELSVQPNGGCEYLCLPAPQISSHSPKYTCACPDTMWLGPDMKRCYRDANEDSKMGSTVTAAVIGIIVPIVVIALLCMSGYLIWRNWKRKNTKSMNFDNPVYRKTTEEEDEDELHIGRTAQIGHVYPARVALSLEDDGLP

binder	Endocytosis, fold over IgG control / fold
anti-LRP-8 ML201-2B4.2B1.2H10 murine antibody (muFc) (antibody, V domains shown, Mouse Fc form; also called ML201-2B4.2B1.2H10 muFc; CL-33867) VH: DVKLVASGGGLVKPGGSLKLSCAASGFTLSRYAMSWVRQTPEKRLEWVAYIRNGGDYIYYADTVKGRFTISRDNARNTLYLQMSSLKSEDTAMYYCTREGSYYNFDYWGQGTTLTVSS VL: DVLMTQTPLSLPVSLGDQASISCRSSQSIVHSNGNTYLEWYLQKPGQSPNLLIFKVSNRFSGVPDRFIGSGSGTDFTLKISRVEAEDLGVYYCFQGSHVPWTFGGGTKLEIK	1.8
anti-LRP-8 antibody ab58216 (mFc) (antibody, V domains shown, Mouse Fc form) VH: EVHLQQSGPEVVKPGASVKISCKASGYIISGYFLNWVKQSHGKSLEWVGRINPYSGDTFFNQKFKGKATLTVDKSSNTAHMELRSLTSEDSAVFYCAREDIGRFAYWGQGTLVTVSA VL: DVLMTQTPLSLPVSLGDQASISCRSSQTIVHSNGNTYLEWYLQKPGQSPKLLIYKVSNRFSGVPDRFSGSGSGTDFTLKISRVEAEDLGVYYCFQGSHAPPTFGGGTKLEIK	2.6
anti-LRP-8 ML199-11H1.5B2 murine antibody (muFc) (antibody, V domains shown, Mouse Fc form (muFc); also called ML199-11H1-5B2 muFc; anti-LRP-8,11H1.5B2) VH: EVQLVESGGDLVKPGGSLKLSCAASRFTFSNYGMSWVRQTPDKRLEWVATISSGGRYTYYPDSVKGRFTISRDNAKNTLYLQMSSLRSEDTAMYYCARDYLYAMDYWGQGTSVTVSS VL: DVVMTQTPLSLPVSLGDQASISCRSSQSLVYSNGNTYLHWYLQKPGQSPKVLMYKVSNRFSGVSDRFSGSGSGTDFTLKISRVEAEDLGVYFCSQSTHVPLTFGAGTKLELK	1.7
anti-LRP-8 ML201-8F3.3D7 murine antibody (muFc) (antibody, V domains shown, Mouse Fc form; also called ML201-8F3-3D7 muFc; CL-33866) VH: EVQLVESGGDLVKPGGSLKLSCAASRFTFSNFGMSWVRQTPDKRLEWVATISSGGRYTYYPDSVKGRFTISRDNAKNTLYLQMSSLRSEDTAMYYCARDYLYAMDYWGQGTSVTVSS VL: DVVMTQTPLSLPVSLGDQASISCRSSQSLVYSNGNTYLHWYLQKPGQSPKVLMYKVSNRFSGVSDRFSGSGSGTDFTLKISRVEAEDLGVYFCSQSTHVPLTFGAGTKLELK	1.6
